- experimental.system: Human renin (Homo sapiens, UniProt P00797)
- Construct: thus to obtain 1.5 mg of a purified product of active type renin (67-406); made in house; host or cells: FreeStyle 293-F cells (transient expression of pcDNA3.1(+)/hREN)
- Sequence (P00797 67-406): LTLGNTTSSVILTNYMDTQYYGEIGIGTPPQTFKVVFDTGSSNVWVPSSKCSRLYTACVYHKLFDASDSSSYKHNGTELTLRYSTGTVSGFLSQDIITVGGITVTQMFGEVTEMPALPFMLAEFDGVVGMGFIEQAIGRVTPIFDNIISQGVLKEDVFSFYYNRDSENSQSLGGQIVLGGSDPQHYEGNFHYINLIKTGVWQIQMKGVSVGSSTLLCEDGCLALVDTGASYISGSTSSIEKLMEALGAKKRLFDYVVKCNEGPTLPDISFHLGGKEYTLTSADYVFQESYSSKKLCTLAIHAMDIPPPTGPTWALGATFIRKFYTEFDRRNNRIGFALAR
- experiment.description: Measurement of renin inhibition value A (FITC-labelled substrate peptide, capillary electrophoresis)
- Format: biochemical
- particulars: test compound 1 μM, renin 4.7 nM, pH 6.0, 37° C., 30 min, read-out: inhibitory activity (%) at 1 μM
Structures can show the parent of a compound that is named as a salt.
reported.endpoint: inhibition at 1 µM (%)

COC[C@]1(O)CCCC[C@H]1n1cnc(C(=O)N2CCNC[C@H]2Cc2cc(F)cc(F)c2)c1-c1ccccc1 [Example 379, hydrochloride] = 99
COC[C@]1(O)CCCC[C@H]1n1cnc(C(=O)N2CCNC[C@H]2CCOc2ccc(C(=O)NC3CC3)cc2)c1-c1ccccc1 = 105
O=C(c1ncn(C2CCCCC2)c1-c1ccccc1)N1CCNC[C@H]1Cc1ccccc1 = 101
COC[C@]1(O)CCCC[C@H]1n1cnc(C(=O)N2CCNC[C@H]2CCOc2ccccc2)c1-c1ccccc1 [Example 387, dihydrochloride] = 109
CCOC(=O)N[C@H]1CCCC[C@@H]1n1cnc(C(=O)N2CCNC[C@H]2Cc2cc(F)cc(F)c2)c1-c1ccccc1 = 103
CCCCC1(O)CCCCC1n1cnc(C(=O)N2CCNC[C@H]2Cc2ccccc2)c1-c1ccccc1 (stereo partly drawn) [Example 360, hydrochloride] = 99
COC(=O)N[C@H]1CCCC[C@@H]1n1cnc(C(=O)N2CCNC[C@H]2Cc2ccccc2)c1-c1ccccc1 = 98
O=C(c1ncn([C@H]2CCCC[C@H]2O)c1-c1ccccc1)N1CCNC[C@H]1Cc1cc(F)cc(F)c1 [Example 1, hydrochloride] = 96
COC[C@]1(O)CCCC[C@H]1n1cnc(C(=O)N2CCNC[C@H]2CCOc2ccccc2F)c1-c1ccccc1 = 106
O=C(c1ncn(CC2(O)CCCCC2)c1-c1ccccc1)N1CCNC[C@H]1Cc1ccccc1 = 99
COC[C@]1(O)CCCC[C@H]1n1cnc(C(=O)N2CCNC[C@H]2CCn2ncc3ccccc32)c1-c1ccccc1 = 109
O=C(c1ncn([C@H]2CCCC[C@H]2O)c1-c1ccccc1)N1CCNC[C@H]1Cc1ccccc1 = 101
COC[C@]1(O)CCCC[C@H]1n1cnc(C(=O)N2CCNC[C@H]2Cc2ccccc2)c1-c1ccccc1 [Example 367, dihydrochloride] = 99
O=C(c1ncn(C2CCCCC[C@@H]2O)c1-c1ccccc1)N1CCNC[C@H]1Cc1ccccc1 (stereo partly drawn) = 100
COC[C@]1(O)CCCC[C@H]1n1cnc(C(=O)N2CCNC[C@H]2Cc2ccccc2)c1-c1cccc(F)c1 = 100
COC[C@]1(O)CCCC[C@H]1n1cnc(C(=O)N2CCNC[C@H]2Cc2cccnc2)c1-c1ccccc1 [Example 380, dihydrochloride] = 100
O=C(c1ncn([C@@H]2CCCC[C@@]2(O)CC2CC2)c1-c1ccccc1)N1CCNC[C@H]1Cc1ccccc1 [Example 363, hydrochloride] = 98
CCOCC1(O)CCCCC1n1cnc(C(=O)N2CCNC[C@H]2Cc2ccccc2)c1-c1ccccc1 (stereo partly drawn) = 100
CSCCCOC[C@@]1(O)CCCC[C@@H]1n1cnc(C(=O)N2CCNC[C@H]2Cc2ccccc2)c1-c1ccccc1 = 99
COC[C@]1(O)CCCC[C@H]1n1cnc(C(=O)N2CCNC[C@H]2CCOc2ccc(C(=O)OC)cc2)c1-c1ccccc1 = 96
CCOC(=O)N[C@H]1CCCC[C@@H]1n1cnc(C(=O)N2CCNC[C@H]2Cc2ccccc2)c1-c1ccccc1 = 100
